Tested on: F1 hybrid maize plants
Assay: trait efficacy field trial, 2,4-D pressure screening, F1 hybrid
Format: in vivo
Details: CTP A; crop injury percentage; 8 lb ae/acre at VE-V2, V4, V8
Measured 8X 2,4-D CIPV8 of individual entries

{"molecule": "MON-HT8: engineered oxygenase protein, amino acid sequence SEQ ID NO:37 (protein) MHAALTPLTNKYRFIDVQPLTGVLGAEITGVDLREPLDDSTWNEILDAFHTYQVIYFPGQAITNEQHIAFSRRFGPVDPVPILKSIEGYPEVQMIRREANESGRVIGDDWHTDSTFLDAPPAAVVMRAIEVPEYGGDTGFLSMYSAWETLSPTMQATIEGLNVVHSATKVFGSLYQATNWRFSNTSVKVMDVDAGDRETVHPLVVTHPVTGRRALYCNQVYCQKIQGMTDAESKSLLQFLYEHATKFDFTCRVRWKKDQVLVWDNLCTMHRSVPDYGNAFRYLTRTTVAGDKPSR", "8X 2,4-D CIPV8": 12.5}
{"molecule": "MON-HT9: engineered oxygenase protein, amino acid sequence SEQ ID NO:40 (protein) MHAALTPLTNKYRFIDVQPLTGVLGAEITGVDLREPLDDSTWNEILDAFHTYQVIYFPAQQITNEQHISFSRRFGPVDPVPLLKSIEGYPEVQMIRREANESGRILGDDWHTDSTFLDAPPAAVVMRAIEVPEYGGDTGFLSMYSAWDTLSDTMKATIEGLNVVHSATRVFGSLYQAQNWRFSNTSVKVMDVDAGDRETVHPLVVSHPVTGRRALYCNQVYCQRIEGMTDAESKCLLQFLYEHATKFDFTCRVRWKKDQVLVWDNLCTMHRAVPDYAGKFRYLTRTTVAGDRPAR", "8X 2,4-D CIPV8": 75}
{"molecule": "MON-HT1: engineered oxygenase protein, amino acid sequence SEQ ID NO:14 (protein) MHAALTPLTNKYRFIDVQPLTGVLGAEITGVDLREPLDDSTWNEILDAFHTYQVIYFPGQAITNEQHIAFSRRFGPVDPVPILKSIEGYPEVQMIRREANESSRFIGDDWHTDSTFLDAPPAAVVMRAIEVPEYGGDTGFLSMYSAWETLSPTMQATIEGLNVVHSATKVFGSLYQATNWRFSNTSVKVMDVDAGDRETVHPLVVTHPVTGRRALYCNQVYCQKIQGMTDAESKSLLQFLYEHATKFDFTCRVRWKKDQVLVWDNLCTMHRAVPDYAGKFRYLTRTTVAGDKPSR", "8X 2,4-D CIPV8": 10}
{"molecule": "MON-HT2: engineered oxygenase protein, amino acid sequence SEQ ID NO:18 (protein) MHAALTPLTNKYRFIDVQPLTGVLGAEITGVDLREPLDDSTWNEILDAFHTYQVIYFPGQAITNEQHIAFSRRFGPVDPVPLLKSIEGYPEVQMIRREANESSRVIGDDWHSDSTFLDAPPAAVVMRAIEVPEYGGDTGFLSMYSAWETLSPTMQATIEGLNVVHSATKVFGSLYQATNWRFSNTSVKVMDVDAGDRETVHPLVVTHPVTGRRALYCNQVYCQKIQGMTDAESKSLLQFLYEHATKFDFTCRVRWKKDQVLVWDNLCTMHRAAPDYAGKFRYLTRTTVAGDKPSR", "8X 2,4-D CIPV8": 7.5}
{"molecule": "MON-HT10: engineered oxygenase protein, amino acid sequence SEQ ID NO:43 (protein) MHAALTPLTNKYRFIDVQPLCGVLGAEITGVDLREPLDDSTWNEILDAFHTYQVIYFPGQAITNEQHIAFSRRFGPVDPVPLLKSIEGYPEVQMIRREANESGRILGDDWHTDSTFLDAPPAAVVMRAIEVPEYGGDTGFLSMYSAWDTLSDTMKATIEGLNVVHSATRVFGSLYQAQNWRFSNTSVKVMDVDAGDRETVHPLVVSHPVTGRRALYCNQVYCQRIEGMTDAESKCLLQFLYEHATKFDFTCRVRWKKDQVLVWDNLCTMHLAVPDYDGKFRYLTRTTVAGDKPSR", "8X 2,4-D CIPV8": 87.5}
